Target: T1, human IL-18 binding protein (IL-18BP) (human, UniProt O95998 31-194)
T1 sequence (looked up): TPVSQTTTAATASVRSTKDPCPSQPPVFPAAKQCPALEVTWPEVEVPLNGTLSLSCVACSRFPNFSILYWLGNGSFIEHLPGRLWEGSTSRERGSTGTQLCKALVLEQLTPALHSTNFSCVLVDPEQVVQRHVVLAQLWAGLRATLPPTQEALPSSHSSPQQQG
Test: cell-based or functional assay
recorded_metric: HEK-blue EC50 (pM) + 300 nM BP
# value in pM; strip the unit string

Q: // query HEK-blue EC50 (pM) + 300 nM BP value for entry IL-18 variant G3T, M60K (ligand) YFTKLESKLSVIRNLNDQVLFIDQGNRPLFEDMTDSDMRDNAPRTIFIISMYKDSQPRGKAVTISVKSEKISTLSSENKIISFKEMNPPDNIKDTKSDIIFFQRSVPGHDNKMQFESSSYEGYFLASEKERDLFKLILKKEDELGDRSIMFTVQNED
Ans: 2.4
